- Tested System: Bifunctional purine biosynthesis protein ATIC (Homo sapiens, UniProt P31939)
- Sequence (P31939 whole entry): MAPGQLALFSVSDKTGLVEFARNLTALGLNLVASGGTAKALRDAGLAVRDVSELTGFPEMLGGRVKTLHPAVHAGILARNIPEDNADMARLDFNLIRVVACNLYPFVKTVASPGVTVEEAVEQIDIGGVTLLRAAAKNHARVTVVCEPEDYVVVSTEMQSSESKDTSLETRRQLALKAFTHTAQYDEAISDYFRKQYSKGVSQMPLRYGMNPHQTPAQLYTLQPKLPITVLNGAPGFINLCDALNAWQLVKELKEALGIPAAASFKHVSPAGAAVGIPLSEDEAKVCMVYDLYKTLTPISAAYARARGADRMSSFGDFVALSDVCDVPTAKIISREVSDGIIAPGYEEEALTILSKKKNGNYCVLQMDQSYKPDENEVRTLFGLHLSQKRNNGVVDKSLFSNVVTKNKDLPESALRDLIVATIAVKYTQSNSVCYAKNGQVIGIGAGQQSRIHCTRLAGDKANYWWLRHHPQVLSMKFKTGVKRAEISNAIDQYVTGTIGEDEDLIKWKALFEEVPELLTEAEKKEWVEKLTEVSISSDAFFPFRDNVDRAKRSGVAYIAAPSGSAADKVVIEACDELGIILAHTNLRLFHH
- Test Description: Inhibition of human AICARFT
pKi: −log10 of the molar value.
Outcome Measure: pKi

{"columns": ["Query Smiles", "Tested System", "Outcome Measure", "Measured Value"],
 "data": [
  ["Nc1nc2ccc(NS(=O)(=O)c3ccc(C(=O)N[C@@H](CCC(=O)O)C(=O)O)cc3)cc2c(=O)[nH]1", "Bifunctional purine biosynthesis protein ATIC (Homo sapiens, UniProt P31939)", "pKi", 8.22]
]}

###

- Test Description: Permeability across apical to basolateral side in MDCK cells at 20 uM
- Format: ADME, cell-based, Canis lupus familiaris
- Run Conditions: dog
Quick reference: permeability of the listed items.
Outcome Measure: permeability

{"columns": ["Molecule", "Measured Value"],
 "data": [
  ["N#Cc1ccc(S(=O)(=O)Nc2ccc3cc[nH]c(=O)c3c2)cc1", "0.55%"],
  ["O=c1[nH]ccc2cc(F)c(NS(=O)(=O)c3ccc(N4C[C@@H](F)[C@@H](O)C4)s3)cc12 (stereo in doubt)", "0.17%"],
  ["O=c1ccc(-c2ccc(S(=O)(=O)Nc3cc4c(=O)[nH]ccc4cc3F)s2)c[nH]1", "0.09%"],
  ["N#Cc1ccc(S(=O)(=O)Nc2cc3c(=O)[nH]ccc3cc2F)cc1", "0.35%"],
  ["O=c1[nH]ccc2cc(F)c(NS(=O)(=O)c3ccc(N4CCC(O)CC4)s3)cc12", "0.25%"]
]}
